src = the supplement of paper PMC12669032

# System: Bacteroides stercoris
# method: growth AUC relative to DMSO control (median of replicates) (fraction); higher = more growth (less inhibition), active = hit call of the paper
# measurementConditions: 20 µM; 24 h
Record form. Attribute: growth AUC. Fill in for each entry.

// worked examples, growth AUC included
# compound, growth AUC
data = [
    ("COC(=O)c1ccc(I)cc1S(=O)(=O)[N-]C(=O)Nc1nc(C)nc(OC)n1.[Na+]", "1.01 (inactive)"),
    ("CCNc1nc(NCC)nc(OC)n1", "1.01 (inactive)"),
    ("COc1ccc(Cl)c(Cl)c1Cl", "0.971 (inactive)"),
    ("CC(C)(CO)C(O)(CCc1ccc(Cl)cc1)Cn1cncn1 (configuration not stated)", "1.01 (inactive)"),
    ("Cc1[nH]n(C)c(=O)c1C(=O)c1ccc(C(F)(F)F)cc1S(C)(=O)=O", "1.01 (inactive)"),
    ("COc1cc(OC)nc(NC(=O)NS(=O)(=O)Nc2ccccc2C(=O)N(C)C)n1", "0.982 (inactive)"),
]

Proceed to the following item.
Consider Br[C@@H]1CC[C@@H](Br)[C@@H](Br)CC[C@H](Br)[C@H](Br)CC[C@H]1Br . Its measured growth AUC is 1 (inactive)

---

Record form. Attribute: growth AUC. Fill in for each entry.
# Test system: Coprococcus comes
# method: growth AUC relative to DMSO control (median of replicates) (fraction); higher = more growth (less inhibition), active = hit call of the paper
# measurementConditions: 20 µM; 24 h
One number for each entry.

// worked examples, growth AUC included
# querySmiles, growth AUC
rows = [
    ("CCCCCCCCSCCO", 0.974),
    ("CC(C)c1nn(C(=O)NC(C)(C)C)c(=O)n1N", 1.02),
    ("O=S(=O)(Oc1ccc(Cl)cc1)c1ccccc1", 0.997),
    ("Cc1[nH]oc(=O)c1N=Nc1ccccc1Cl", 1.01),
    ("CN(C(=O)NC(C)(C)c1ccccc1)c1ccccc1", 1.01),
]

Respectfully, I request growth AUC for each entry included below.
1. CC(C)(NC(=O)NCc1ccccc1Cl)c1ccccc1
2. O=C(O)COc1cccc(Cl)c1Cl

1. 1.02
2. 1.01

---

# Tested on: Lactobacillus paracasei
# method: growth AUC relative to DMSO control (median of replicates) (fraction); higher = more growth (less inhibition), active = hit call of the paper
# measurementConditions: 20 µM; 24 h
recordedEndpoint: growth AUC
Numbers only.

// worked examples, growth AUC included
# compound, growth AUC
records = [
    ("CCOCCc1ccc(OCCNc2ncnc(CC)c2Cl)c(C)c1C", 0.929),
    ("CN(C(=O)NC(C)(C)c1ccccc1)c1ccccc1", 0.951),
    ("CCNc1nc(Cl)nc(N(CC)CC)n1", 0.997),
]

Respectfully, I request growth AUC for each entry included below.
1. C#CCOc1cc(-n2nc(C(C)(C)C)oc2=O)c(Cl)cc1Cl
2. CC(C)(C)[C@@H](O)[C@@H](Cc1ccc(Cl)cc1)n1cncn1 (mixture of isomers)
3. C#CCOC(=O)[C@@H](C)Oc1ccc(Oc2ncc(Cl)cc2F)cc1
4. CCCCCCCCSCCO
5. CSc1nc(NC2CC2)nc(NC(C)(C)C)n1
6. c1ccc2cc3c(ccc4ccccc43)cc2c1

1. 0.958
2. 0.954
3. 0.997
4. 0.93
5. 0.987
6. 1
